- study system: T1, recombinant human activated Factor VII (FVIIa) (human, UniProt P08709 61-212; P08709 213-466, ten glutamate residues of the Gla domain may be gamma-carboxylated)
- T1 construct: chains tethered by a disulfide bond; also called Factor VIIa; rFVIIa
- T1 sequence 1: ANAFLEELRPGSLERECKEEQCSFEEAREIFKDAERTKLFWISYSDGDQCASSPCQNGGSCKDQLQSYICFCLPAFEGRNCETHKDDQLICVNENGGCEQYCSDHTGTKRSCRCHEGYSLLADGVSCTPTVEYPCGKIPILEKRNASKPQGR
- T1 sequence 2: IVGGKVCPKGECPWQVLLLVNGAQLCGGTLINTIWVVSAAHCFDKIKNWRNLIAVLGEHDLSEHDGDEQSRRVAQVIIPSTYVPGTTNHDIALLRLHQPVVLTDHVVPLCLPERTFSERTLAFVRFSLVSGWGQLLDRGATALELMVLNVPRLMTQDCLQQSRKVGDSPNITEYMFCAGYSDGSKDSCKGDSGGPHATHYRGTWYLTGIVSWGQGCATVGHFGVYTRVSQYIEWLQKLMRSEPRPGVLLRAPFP
- assay comment: BLI (Fortebio)
pKd: −log10 of the molar value.
Rule: pKd of 8 or more gives Criterion met; anything lower gives Criterion not met.

[[record]]
binder = "VH SEQ ID NO 594 / VL SEQ ID NO 326 (antibody, IgG4, V domains shown, humanized 11F2; IgG4 S228P/kappa) VH: QVQLQESGPGLVKPSDTLSLTCAVSGYSISSDSAWSWIRQPPGKKLEWIGYIQYSGSTNYNPSLKSRVTMSVDTSKNQFSLKLSSVTALDTAVYYCARSVNYYGNSFAVGPWGQGTLVTVSS VL: EIVLTQSPATLSLSPGERATLSCRASQGISDYLHWYQQKPGEAPRLLIKYTSQPATGIPARFSGSGSGTDFTLTISSLEPEDFGVYYCQNGHSFPLTFGAGTKLELK"
class_assignment = "Criterion not met"

[[record]]
binder = "VH SEQ ID NO 554 / VL SEQ ID NO 462 (antibody, IgG4, V domains shown, humanized 11F2; IgG4 S228P/kappa) VH: QVQLQESGPGLVKPSDTLSLTCAVSGYSISSDSAWSWIRQFPGKGLEWIGYIQYSGSTNYNPSLKSRVTMSVDTSKNQFSLKLSSVTALDTAVYYCARSVNYYGNSFAVGPWGQGTLVTVSS VL: EIVLTQSPATLSLSPGERATLSCRASQGVSDYLHWYQQKPGQAPRLLIKYASQPATGIPARFSGSGSGTDFTLTISSLEPEDFAVYYCQNGHSFPLTFGAGTKLEIK"
class_assignment = "Criterion not met"

[[record]]
binder = "VH SEQ ID NO 554 / VL SEQ ID NO 486 (antibody, IgG4, V domains shown, humanized 11F2; IgG4 S228P/kappa) VH: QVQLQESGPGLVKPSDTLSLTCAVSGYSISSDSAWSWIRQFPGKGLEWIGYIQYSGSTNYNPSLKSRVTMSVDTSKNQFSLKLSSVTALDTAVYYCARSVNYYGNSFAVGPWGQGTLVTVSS VL: EIVLTQSPATLSLSPGERATLSCRASQGVSDYLHWYQQKPGQAPRLLIKYASQPATGIPARFSGSGSGTDFTLTISSLEPEDFGVYYCQNGHSFPLTFGQGTKLEIK"
class_assignment = "Criterion not met"

[[record]]
binder = "VH SEQ ID NO 522 / VL SEQ ID NO 358 (antibody, IgG4, V domains shown, humanized 11F2; IgG4 S228P/kappa) VH: QVQLQESGPGLVEPSQTLSLTCTVSGYSISSDSAWSWIRQPPGKGLEWIGYIQYSGSTNYNPSLKSRVTISRDTSKNQFSLKLSSVTAADTAVYYCARSVNYYGNSFAVGPWGQGTLVTVSS VL: EIVLTQSPATLSLSPGERATLSCRASQGISDYLHWYQQKPGQAPRLLIKYTSQPATGIPARFSGSGSGTDFTLTISSLEPEDFAVYYCQNGHSFPLTFGQGTKLEIK"
class_assignment = "Criterion met"

[[record]]
binder = "VH SEQ ID NO 538 / VL SEQ ID NO 358 (antibody, IgG4, V domains shown, humanized 11F2; IgG4 S228P/kappa) VH: QVQLQESGPGLVEPSQTLSLTCTVSGYSITSDSAWSWIRQPPGKKLEWIGYIQYSGSTNYNPSLKSRVTISRDTSKNQFSLKLSSVTAADTAVYYCARSVNYYGNSFAVGYWGQGTLVTVSS VL: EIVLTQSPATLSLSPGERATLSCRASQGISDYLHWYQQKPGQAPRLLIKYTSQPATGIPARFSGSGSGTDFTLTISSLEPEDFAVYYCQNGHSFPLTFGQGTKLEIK"
class_assignment = "Criterion met"

[[record]]
binder = "VH SEQ ID NO 578 / VL SEQ ID NO 342 (antibody, IgG4, V domains shown, humanized 11F2; IgG4 S228P/kappa) VH: QVQLQESGPGLVKPSDTLSLTCAVSGYSISSDSAWSWIRQPPGKGLEWIGYIQYSGSTNYNPSLKSRVTMSVDTSKNQFSLKLSSVTALDTAVYYCARSVNYYGNSFAVGPWGQGTLVTVSS VL: EIVLTQSPATLSLSPGERATLSCRASQGISDYLHWYQQKPGQAPRLLIKYTSQPATGIPARFSGSGSGRDFTLTISSLEPEDFAVYYCQNGHSFPLTFGAGTKLELK"
class_assignment = "Criterion not met"

[[record]]
binder = "VH SEQ ID NO 314 / VL SEQ ID NO 334 (antibody, IgG4, V domains shown, humanized 11F2; IgG4 S228P/kappa) VH: QVQLQESGPGLVEPSDTLSLTCAVSGYSISSDSAWSWIRQPPGKGLEWIGYIQYSGSTNYNPSLKSRVTMSVDTSKNQFSLKLSSVTALDTAVYYCARSVNYYGNSFAVGPWGQGTLVTVSS VL: EIVLTQSPATLSLSPGERATLSCRASQGISDYLHWYQQKPGQAPRLLIKYASQPATGIPARFSGSGSGTDFTLTISSLEPEDFAVYYCQNGHSFPLTFGQGTKLEIK"
class_assignment = "Criterion not met"

[[record]]
binder = "VH SEQ ID NO 610 / VL SEQ ID NO 446 (antibody, IgG4, V domains shown, humanized 11F2; IgG4 S228P/kappa) VH: QVQLQESGPGLVKPSQTLSLTCTVSGGSITSDSAWSWIRQPPGKGLEWIGYIQYSGSTNYNPSLKSRVTISVDTSKNQFSLKLSSVTAADTAVYYCARSVNYYGNSFAVGYWGQGTLVTVSS VL: EIVLTQSPATLSLSPGERATLSCRASQGVSDYLAWYQQKPGQAPRLLIKYTSQPATGIPARFSGSGSGTDFTLTISSLEPEDFAVYYCQNGHSFPLTFGQGTKLEIK"
class_assignment = "Criterion not met"

[[record]]
binder = "VH SEQ ID NO 618 / VL SEQ ID NO 486 (antibody, IgG4, V domains shown, humanized 11F2; IgG4 S228P/kappa) VH: QVQLQESGPGLVKPSQTLSLTCTVSGYSISSDSAWSWIRQFPGKGLEWIGYIQYSGSTNYNPSLKSRVTISRDTSKNQFSLKLSSVTAADTAVYYCARSVNYYGNSFAVGPWGQGTLVTVSS VL: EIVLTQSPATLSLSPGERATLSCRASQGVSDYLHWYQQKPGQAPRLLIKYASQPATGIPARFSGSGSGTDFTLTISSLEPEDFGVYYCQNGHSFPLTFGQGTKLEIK"
class_assignment = "Criterion met"

